Origin of values: PubChem BioAssay AID1823

test: counter-screen for Nox1 inhibitors: inhibitors of luminol chemiluminescence (AID 1823); conditions: HRP/luminol/H2O2 chemiluminescence counterscreen; at 6.7 µM; hits give high values
The campaign covered roughly 16,000 compounds. About 70 (0.4%) were called active. The sample as a whole holds a higher share of actives than the screen did.
Recorded inhibition for the following molecules
Endpoint: inhibition (%)

- Structure string: "CCCN(CCC)S(=O)(=O)c1ccc(C(=O)Oc2c(C)cccc2OC)cc1"
  Endpoint value: -5.62
- Structure string: "Cc1ccccc1NC(=O)NCc1ccco1"
  Endpoint value: -0.91
- Structure string: "O=C(CSc1nc2ccccc2o1)N1CCC(n2cccc2)CC1"
  Endpoint value: 10
- Structure string: "CCCc1nc(N)ncc1C(=O)OCC"
  Endpoint value: -1.66
- Structure string: "CCOC(=O)c1cc(C)n(-c2cccc([N+](=O)[O-])c2)c1-c1ccccc1"
  Endpoint value: 1.22
- Structure string: "CCc1cnc(NS(=O)(=O)c2cc(Cl)sc2Cl)nc1-c1c(F)cccc1F"
  Endpoint value: -0.98
- Structure string: "Cc1nc(C(F)(F)F)ccc1NC(=O)/C=C\\C(=O)O"
  Endpoint value: 1.91
- Structure string: "O=c1[nH]c2c(=O)[nH]c(=S)[nH]c2nc1/C=C(\\O)c1ccccc1"
  Endpoint value: -2.84
- Structure string: "NS(=O)(=O)c1ccc(Oc2c(Cl)cccc2[N+](=O)[O-])cc1"
  Endpoint value: -4.5
- Structure string: "COc1ccc(Cc2nc(C(C)(C)C)cs2)cc1"
  Endpoint value: -2.22
- Structure string: "CCOC(=O)c1c(NC(=S)Nc2ccccc2)sc2c1CCN(C)C2"
  Endpoint value: 0.9
- Structure string: "c1ccc(-c2nsc(N3CCNCC3)n2)cc1"
  Endpoint value: -5
- Structure string: "COc1cccc2c1c(NS(=O)(=O)c1cn(C)cn1)nn2C"
  Endpoint value: -21.4
- Structure string: "CO/N=C(/C)c1ccc2c(c1)CCO2"
  Endpoint value: -0.06
- Structure string: "CC(=O)Nc1ccc(S(=O)(=O)NNc2c(Cl)cncc2Cl)cc1Cl"
  Endpoint value: 10.2
- Structure string: "O=C1c2ccccc2C(=O)N1CCCN1CCN(Cc2c(F)cccc2Cl)CC1"
  Endpoint value: -3.51
- Structure string: "COc1cc(OC)nc(S(C)(=O)=O)n1"
  Endpoint value: -4.97
- Structure string: "CC(=O)NC12CC3(C)CC(C)(CC(C)(C3)C1)C2"
  Endpoint value: 2.16
- Structure string: "CCOC(=O)c1c(C)csc1NC(=O)CC(=O)C(F)(F)F"
  Endpoint value: -0.11
- Structure string: "O=C(c1ccc(Oc2ccc(Cl)cc2)c([N+](=O)[O-])c1)N1CCCC1"
  Endpoint value: 2.31
- Structure string: "CCSC(=O)NCc1ccccc1"
  Endpoint value: -0.89
- Structure string: "CCOC(=O)c1c(NC(=S)NC)sc2c1CCCC2"
  Endpoint value: 97.7
- Structure string: "CC1=NCCNC(C)=C1N1CCOCC1"
  Endpoint value: -0.98
- Structure string: "Nc1nc(C23CC4CC(CC(C4)C2)C3)cs1"
  Endpoint value: -1.09

---

assay: counter-screen for Nox1 inhibitors: inhibitors of luminol chemiluminescence (AID 1823); settings: HRP/luminol/H2O2 chemiluminescence counterscreen; at 6.7 µM; hits give high values
The campaign covered roughly 16,000 compounds. About 70 (0.4%) were called active. The full list was thinned out, with actives kept by preference.
Recorded inhibition for the following compounds

- Structure string: "CCOC(=O)c1cc(CC)sc1NC(=O)c1cccc(C(F)(F)F)c1"
  Unit symbol: "%"
  inhibition: -4.21
- Structure string: "COc1ccc2c(OC(C)=O)coc2c1"
  Unit symbol: "%"
  inhibition: -1.52
- Structure string: "CSc1nnc(SC)n1CCNC(=O)Nc1cccc(Cl)c1"
  Unit symbol: "%"
  inhibition: 3.79
- Structure string: "Cc1ccc(S(=O)(=O)NNC(=O)c2ccccc2N)cc1"
  Unit symbol: "%"
  inhibition: 37.9
- Structure string: "O=C(NCc1cccnc1)Nc1cccc(NC(=O)NCc2cccnc2)c1F"
  Unit symbol: "%"
  inhibition: 1.8
- Structure string: "N#CCSc1ccc2ccccc2c1"
  Unit symbol: "%"
  inhibition: -1.43
- Structure string: "CCCCc1c(O)cc(-c2ccccc2)n(Cc2ccccc2)c1=O"
  Unit symbol: "%"
  inhibition: 7.84

---

Recorded inhibition for the following compounds
test: counter-screen for Nox1 inhibitors: inhibitors of luminol chemiluminescence (AID 1823); conditions: HRP/luminol/H2O2 chemiluminescence counterscreen; at 6.7 µM; hits give high values
In all, about 16,000 compounds went through this assay and about 70 (0.4%) were called active. Shown is part of a subset that was picked to be rich in actives.

- Compound: "COC(=O)c1cnc(N2CCCN(C(=O)C3COc4ccccc4O3)CC2)nc1C(F)(F)F (stereo not drawn)"
  inhibition / %: 1.21
- Compound: "Cn1cccc1-c1n[nH]c(=S)n1-c1ccc(Cl)cc1Cl"
  inhibition / %: 2.46
- Compound: "COc1ccc(Cc2nnc(SC)[nH]c2=O)cc1"
  inhibition / %: 1.75
- Compound: "O=C(Nc1ccc(I)cc1Cl)C(=S)NCc1cccs1"
  inhibition / %: -1.16
- Compound: "O=[N+]([O-])c1ccc(-c2ccc(I)cc2)cc1"
  inhibition / %: -6.68
- Compound: "CCOC(=O)Cn1cc(Cl)ccc1=O"
  inhibition / %: -6.12
- Compound: "O=C(NNC(=S)Nc1ccc(S(=O)(=O)N2CCCCC2)cc1)c1ccncc1"
  inhibition / %: 12.6
- Compound: "O=C(CCN1CCN(C(c2ccccc2)c2ccccc2)CC1)c1ccccc1"
  inhibition / %: -3.01
- Compound: "CC(C)c1ccc(N2C(=O)/C(=C\\c3ccc(-c4ccc([N+](=O)[O-])cc4)o3)SC2=S)cc1"
  inhibition / %: 2.47
- Compound: "Cc1c(S(=O)(=O)c2ccc(Cl)cc2)csc1C(=O)Nc1ccc2c(c1)OCCO2"
  inhibition / %: 0.51
- Compound: "Cc1cc(/C(N)=N/OC(=O)c2cccs2)c(-c2ccccc2)o1"
  inhibition / %: -4.79
- Compound: "O=C(c1ccc(F)cc1)C1CCN(Cc2cn[nH]c2-c2ccccc2)CC1"
  inhibition / %: 0.3
- Compound: "CN(C(=O)Nc1ccc(Cl)cc1)n1cnc2ccccc2c1=O"
  inhibition / %: -2.37
- Compound: "c1ccc2sc(-c3csc(-c4ccc5c(c4)OCCO5)n3)nc2c1"
  inhibition / %: 3.06
- Compound: "CC(=O)Nc1ccc(NC(=O)c2cc(C)ccc2[N+](=O)[O-])c(C)c1"
  inhibition / %: 0.85
- Compound: "Cc1cc(C2=CSC3=NCCN23)ccc1Cl"
  inhibition / %: 36.3
- Compound: "CSc1sc(C(N)=O)cc1C#N"
  inhibition / %: -6.88
- Compound: "C/C(=N\\O)C(C)(C)Nc1ccc(C(C)(C)C)cc1"
  inhibition / %: -0.65
